Target: T1, hBCMA (human BCMA) (Homo sapiens, UniProt Q02223)
T1 sequence (Q02223 1-184): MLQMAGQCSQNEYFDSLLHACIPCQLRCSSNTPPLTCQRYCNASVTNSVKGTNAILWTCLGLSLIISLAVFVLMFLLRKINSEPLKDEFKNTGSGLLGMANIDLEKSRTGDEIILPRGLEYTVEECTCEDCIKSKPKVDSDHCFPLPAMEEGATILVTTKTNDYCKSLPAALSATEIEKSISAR
Assay: Kinetics and affinity of hBCMA/human IgG interactions by SPR (Bio-Rad Proteon XPR36)
Format: binding
Conditions: huBCMA, 37° C.
Metric: kd (1/s) huBCMA @37° C. (s⁻¹)
Numbers only, in s⁻¹.

Record kd (1/s) huBCMA @37° C. for all entries; do not skip any.
1. L3.PY/H3.YA: anti-BCMA antibody (antibody, V domains shown) VH: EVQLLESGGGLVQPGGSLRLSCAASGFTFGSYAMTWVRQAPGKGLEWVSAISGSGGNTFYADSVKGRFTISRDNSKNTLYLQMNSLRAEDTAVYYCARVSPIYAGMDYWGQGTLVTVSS VL: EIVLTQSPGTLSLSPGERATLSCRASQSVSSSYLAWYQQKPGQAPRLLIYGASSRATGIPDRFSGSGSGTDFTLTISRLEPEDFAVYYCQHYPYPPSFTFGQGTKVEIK
2. L3.PY/H2.HA: anti-BCMA antibody (antibody, V domains shown) VH: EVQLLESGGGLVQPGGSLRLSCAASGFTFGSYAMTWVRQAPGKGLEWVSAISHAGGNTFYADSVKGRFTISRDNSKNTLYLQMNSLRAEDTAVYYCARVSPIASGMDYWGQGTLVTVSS VL: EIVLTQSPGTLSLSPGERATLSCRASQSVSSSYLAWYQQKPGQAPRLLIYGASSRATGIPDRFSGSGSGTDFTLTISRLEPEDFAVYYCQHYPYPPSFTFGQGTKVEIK
3. L3.PY/L1.PS/H3.YA: anti-BCMA antibody (antibody, V domains shown) VH: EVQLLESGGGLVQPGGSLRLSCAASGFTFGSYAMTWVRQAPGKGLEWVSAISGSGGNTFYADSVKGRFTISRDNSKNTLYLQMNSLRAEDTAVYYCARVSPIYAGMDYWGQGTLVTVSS VL: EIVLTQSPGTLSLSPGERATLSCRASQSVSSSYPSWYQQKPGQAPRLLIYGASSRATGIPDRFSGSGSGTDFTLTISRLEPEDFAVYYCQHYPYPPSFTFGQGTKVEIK

1: 0.00118; 2: 0.00147; 3: 0.00905

Record kd (1/s) huBCMA @37° C. for all entries; do not skip any.
1. L3.PY/L3.KF/H3.TAQ: anti-BCMA antibody (antibody, V domains shown) VH: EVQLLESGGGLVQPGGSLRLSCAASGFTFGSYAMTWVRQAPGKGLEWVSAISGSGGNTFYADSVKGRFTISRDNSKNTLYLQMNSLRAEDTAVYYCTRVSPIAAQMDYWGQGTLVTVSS VL: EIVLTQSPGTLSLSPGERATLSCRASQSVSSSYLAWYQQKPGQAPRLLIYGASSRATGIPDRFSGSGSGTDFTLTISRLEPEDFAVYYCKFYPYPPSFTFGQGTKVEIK
2. L3.PY/L1.FF/H2.QL: anti-BCMA antibody (antibody, V domains shown) VH: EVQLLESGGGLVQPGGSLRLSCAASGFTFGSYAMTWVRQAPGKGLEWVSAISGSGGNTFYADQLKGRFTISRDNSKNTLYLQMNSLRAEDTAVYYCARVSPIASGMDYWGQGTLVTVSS VL: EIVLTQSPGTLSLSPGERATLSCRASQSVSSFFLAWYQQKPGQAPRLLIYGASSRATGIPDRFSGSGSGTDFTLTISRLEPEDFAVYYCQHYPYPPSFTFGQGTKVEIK

1. 0.00162
2. 0.0014
